The origin of these recorded values is the supplement of paper PMC10567573.

B1: SERPINB5 (parent)
chain: FPESETKECPFRVNKVCGAACSSK

# Variants of: B1
# TEST_METHOD_NOTES: protein stability index of a GFP-peptide fusion (GPS, HEK-293T) (PSI 1-6); higher = more stable;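 note: lentivirally expressed fusions sorted by FACS into six bins by GFP to DsRed ratio, PSI derived from sequencing read proportions per bin multiplied by bin number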
# STATED_CONDITIONS: c terminus: a fixed tail appended
Recorded protein stability index by entry

| SEQUENCE_VARIANT | protein stability index |
| --- | --- |
| P10I | 2.53 |
| E5P | 3.05 |
| A20Y | 2.27 |
| F1E | 5.05 |
| E5Q | 1.4 |
| C17T | 2.68 |
| N14L | 2.35 |
| R12N | 3.66 |
| C17P | 2.29 |
| V13E | 4.17 |
| C9A | 4.49 |
| C21E | 3.19 |
| C9S | 2.15 |
| A19S | 2.92 |
| F11K | 5.11 |
| E5M | 2.35 |
| E8A | 2.25 |
| E8K | 3.04 |
| T6Q | 2.95 |
| G18I | 2.1 |
| S22D | 2.66 |
| K15F | 2.12 |
